Measured Target: HLA A0203 (human)
Experimental Protocol: 125I-probe competition, purified HLA
Measured Endpoint: IC50 (nM)
Give the value, in units of nM, as a plain number.

Here is how some binders turned out for IC50.
- Binder: "YTNWKFIYL (modifications not checked) [HPV31.E2.131]"
  Units: "nM"
  IC50: 31
- Binder: "YVVWDSIYYI (modifications not checked) [HPV45.E2.137]"
  Units: "nM"
  IC50: 248
- Binder: "KLLSKLLCV (modifications not checked) [HPV16.E1.292]"
  Units: "nM"
  IC50: 23

Here is the next item to consider.
Exercise: Name the reported IC50 value associated with the binder TLYAHIQCL (modifications not checked) [HPV45.E1.252]
Solution: 6.2
